melting point listing for selected molecules.

Recorded melting point of Cc1cc(=O)c2cc(N)ccc2s1 , please.
265 °C

Recorded melting point of O=C(NCCO)c1cccc(-c2cccn3nc(Nc4cccc(C(F)(F)F)c4)nc23)c1 , please.
215 to 216 °C

Recorded melting point of CCc1nc2c(O)c(CCC(=O)c3ccccc3)c(C(=O)N(C)C)cc2n1C , please.
177 to 180 °C

Recorded melting point of c1ccc2c(CN3CCN(Cc4ccc5c(c4)OCO5)CC3)n[nH]c2c1 , please.
175 to 176 °C

Recorded melting point of CC(=O)OC1CC2=CCC3C4CCC(C(C)CO)C4(C)CCC3C2(C)C(O)C1 (stereo not given) , please.
121 °C

Recorded melting point of CN(C)Cc1nc(C(=O)N(C)C)nn1-c1ccc(Cl)cc1C(=O)c1ccccc1F , please.
140 to 142 °C

Recorded melting point of CCCNC(C)=NC(=Nc1ccccc1)N1CCOCC1 , please.
101 to 103 °C

Recorded melting point of Cc1cc(-c2ccc(C(F)(F)F)c(C)c2)nc(-c2cccc(-c3ccc(S(N)(=O)=O)s3)c2)n1 , please.
242 °C

Recorded melting point of N#CC(c1ccncc1)c1nnc(Nc2ccc3ncsc3c2)c2ccccc12 (stereo not given) , please.
163 to 164 °C

# next molecule below
Recorded melting point of COC(=O)c1ccc(Sc2ccc(O)cc2)cc1 , please.
184 to 186 °C

###

ASSAY_ENDPOINT: melting point

Recorded melting point of CCNC1(c2ccccc2Cl)C(=O)N(Cc2ccc(C(=O)NC(C)(C)C)cc2)c2ccc(Cl)cc21 (stereo unspecified) , please.
190 to 195 °C

Recorded melting point of CC(=O)c1cccc(C)c1NC(=O)CCl , please.
88 to 89 °C

Recorded melting point of CCN(CC)CCNc1ncc2cc(-c3c(Cl)cccc3Cl)c(NC(=O)NC(C)(C)C)nc2n1 , please.
94.5 to 96.5 °C

Recorded melting point of CCCCN(CC)c1nc(C)nc2c1NC(=S)CN2c1ccc(C(C)C)cc1Br , please.
148 to 149 °C

Recorded melting point of CCCCc1cc2ccccc2c(Oc2ccc(/C=C/C(=O)O)cc2)c1-c1ccc(OC)cc1 , please.
186 to 187 °C

Recorded melting point of COC(c1cccc2nc3n(c12)CCCN3c1ccc(Cl)cc1Cl)C1CC1 (stereo unspecified) , please.
118 to 119 °C

Recorded melting point of CC(=O)N(C)c1cccc(-c2ccc3nncn3n2)c1 , please.
166 to 169 °C

###

melting point listing for selected compounds.

Solved cases below.
Recorded melting point of CC(C)(C)OC(=O)Nc1cc(Cl)c(-c2ccccc2)cc1N , please.
109 to 111 °C

Recorded melting point of COc1cc2c(cc1OC)S(=O)(=O)N(C)C(C(N)=O)C2 (stereo not given) , please.
215 to 222 °C

Recorded melting point of CN(C)CCN(C1CCS(=O)(=O)C1)S(=O)(=O)c1ccc(Nc2nccc(Nc3ccc(F)cc3)n2)cc1 (stereo not given) , please.
162 to 165 °C

Next:
Recorded melting point of CC[C@H](C)[C@@H](CO)NS(=O)(=O)c1ccc(I)cc1 , please.
118 to 120 °C

Recorded melting point of CCCN(CCC)C1Cc2cc3c(cc2C1)C(=O)NC3 (stereo not given) , please.
206 to 208 °C

Recorded melting point of COC(=O)Cc1ccc(NC(=O)c2sc3ccc(OC)cc3c2OC(C)C)cc1 , please.
111 to 113 °C

Recorded melting point of CCOCc1nc2c(N)nc3cc(OCCN4CCOCC4)ccc3c2n1CC(C)(C)O , please.
161 to 163 °C
